System: K-562
Assay: Inhibition of cells growth by colorimetric assay (SRB), K-562
Format: cell-based
Conditions: Homo sapiens, K562, 48 h, read-out: LC50 K-562, K-562; SRB, 48 hours exposure
Measurement Type: LC50 (50% cell killing) (nM)

[
  {
    "Compound": "COc1cc2c(cc1OC(=O)c1cc3ccccc3oc1=O)CCN[C@]21CS[C@@H]2c3c(OC(C)=O)c(C)c4c(c3[C@H](COC1=O)N1C2[C@H]2c3c(cc(C)c(OC)c3O)C[C@@H]([C@@H]1O)N2C)OCO4 (stereo partly shown)",
    "Reported Value": 0.351
  },
  {
    "Compound": "COc1cc2c(cc1OC)[C@@]1(CS[C@@H]3c4c(OC(C)=O)c(C)c5c(c4[C@H](COC1=O)N1C3[C@H]3c4c(cc(C)c(OC)c4O)C[C@@H]([C@@H]1O)N3C)OCO5)NCC2 (stereo partly shown)",
    "Reported Value": 0.8
  },
  {
    "Compound": "COc1cc2c(cc1OC(=O)C(F)(F)C(F)(F)C(F)(F)F)CCN[C@]21CS[C@@H]2c3c(OC(C)=O)c(C)c4c(c3[C@H](COC1=O)N1C2[C@H]2c3c(cc(C)c(OC)c3O)C[C@@H]([C@@H]1O)N2C)OCO4 (stereo partly shown)",
    "Reported Value": 0.661
  },
  {
    "Compound": "COc1cc2c(cc1O)CCN[C@]21CS[C@@H]2c3c(OC(C)=O)c(C)c4c(c3[C@H](COC1=O)N1C2[C@H]2c3c(cc(C)c(OC)c3OC(C)C)C[C@@H]([C@@H]1C#N)N2C)OCO4 (stereo partly shown)",
    "Reported Value": 1230
  }
]
